Each recorded value in this set is attributed to the METLIN SMRT retention time set (Domingo-Almenara et al. 2019).

Readings of RP-LC retention time for the listed molecules
assay: gradient 5% acetonitrile 3 min, to 50% in 2 min, to 85% in 15 min, held 3 min, 100 µL/min; conditions: column: Zorbax Extend-C18 2.1 x 50 mm; eluents: water / acetonitrile, 0.1% formic acid
Value expressed in s; do not type the unit.

[[record]]
molecule = "CCC(CC)C(=O)N1CCC(Oc2nccnc2N(C)C)C1 (stereo unspecified)"
reading_unit = "s"
assay_result = 749

[[record]]
molecule = "CC1=C(c2ccccc2)S(=O)(=O)N=C1N1CCCN(C(=O)Nc2cccc(C)c2)CC1"
reading_unit = "s"
assay_result = 709


Input: Data request, read-out RP-LC retention time, for Cc1ccc(NC(=O)Nc2ccc(NC(=O)N3CCCC(C(=O)NC(C)C)C3)cc2)cc1 (stereo unspecified)
Output: 760

* * *

test: gradient 5% acetonitrile 3 min, to 50% in 2 min, to 85% in 15 min, held 3 min, 100 µL/min; conditions: column: Zorbax Extend-C18 2.1 x 50 mm; eluents: water / acetonitrile, 0.1% formic acid
Would you mind labelling by RP-LC retention time? At or over 700 s is true (1), under is false (0).

Input: Can CN(C)S(=O)(=O)c1ccc(-c2nnc(C(=O)NCCN3CCCC3)o2)cc1 be said to have RP-LC retention time at or above 700 s?
Output: false (0)

Input: Entry CC(NC(=O)C1CCN(CCc2cn(C)c3ncccc23)CC1)c1ccccc1 (stereo not given) : is its RP-LC retention time no less than 700 s?
Output: false (0)

Input: Textbook exercise: given the entry CN1C(=O)C2(CCN(C(=O)c3cccc(Cl)c3)C2)c2ccccc21 (stereo not given) , state whether its RP-LC retention time is greater than or equal to 700 s.
Output: true (1)

Input: Quick check, RP-LC retention time >= 700 s? Cc1ccc(OCC(O)Cn2c(C3CC3)nc3ccccc32)cc1C (stereo not given)
Output: true (1)

Input: Is RP-LC retention time for Cc1ccc(-c2[nH]ncc2CN2CC(F)(F)C[C@H]2CN2CCOCC2)cc1C at or above 700 s?
Output: false (0)

* * *

assay: gradient 5% acetonitrile 3 min, to 50% in 2 min, to 85% in 15 min, held 3 min, 100 µL/min; settings: column: Zorbax Extend-C18 2.1 x 50 mm; eluents: water / acetonitrile, 0.1% formic acid
RP-LC retention time under 700 s gets rule met, anything at or over 700 s gets rule not met.

[[record]]
compound = "COCCNC(=O)c1ccc2c(c1)CCCN2S(=O)(=O)c1ccc(Cl)cc1"
category = "rule not met"

[[record]]
compound = "Cc1ccc2c(Nc3ccc4c(c3)OCO4)c(-c3nc(C4CC4)no3)cnc2n1"
category = "rule not met"

[[record]]
compound = "CCOc1ccc(NC(=O)Cn2nc3c(Oc4ccccc4C)nccn3c2=O)cc1"
category = "rule not met"


Input: Does the reported RP-LC retention time of the following compound sit strictly below 700 s? Cc1noc(-c2nn(C)c3c2CN(C(=O)Nc2cccc(F)c2)CC3)n1
Output: rule not met

Input: Say whether its RP-LC retention time is strictly beneath 700 s. Entry: O=C(NC1CCCCCC1)c1ccc(CN2C(=O)C3CCCN3C(=O)c3ccccc32)cc1 (centres undefined)
Output: rule not met

Input: Consider CCc1nc(-c2csc(S(=O)(=O)N3CCCC(C(=O)NC4CC4)C3)c2)no1 (centres undefined) . Does its RP-LC retention time lie strictly below 700 s?
Output: rule not met

Input: Answer whether the compound COCCC1(N(C)C)CCN(S(=O)(=O)c2ccc(C#N)cc2)CC1 has RP-LC retention time strictly less than 700 s
Output: rule met

Input: Please let me know if CCOC(=O)C1CCCN(C(=O)C2CCN(S(=O)(=O)c3ccc4c(ccn4CC)c3)CC2)C1 (centres undefined) shows RP-LC retention time below 700 s.
Output: rule not met

Input: Decide: RP-LC retention time of CCc1nc2cc(N3CCC(C(=O)NC4CCCC4)CC3)cnc2nc1CC strictly below 700 s?
Output: rule not met

Input: Problem: For the compound COc1ccc(CNC(=O)COc2nc(C)nc3ccccc23)cc1 , is RP-LC retention time under 700 s?
Output: rule met
